assayed_system: Breakpoint cluster region protein (Homo sapiens, UniProt P11274); note: in the data inactive means no Kd found up to 30 µM
Sequence (P11274 whole entry): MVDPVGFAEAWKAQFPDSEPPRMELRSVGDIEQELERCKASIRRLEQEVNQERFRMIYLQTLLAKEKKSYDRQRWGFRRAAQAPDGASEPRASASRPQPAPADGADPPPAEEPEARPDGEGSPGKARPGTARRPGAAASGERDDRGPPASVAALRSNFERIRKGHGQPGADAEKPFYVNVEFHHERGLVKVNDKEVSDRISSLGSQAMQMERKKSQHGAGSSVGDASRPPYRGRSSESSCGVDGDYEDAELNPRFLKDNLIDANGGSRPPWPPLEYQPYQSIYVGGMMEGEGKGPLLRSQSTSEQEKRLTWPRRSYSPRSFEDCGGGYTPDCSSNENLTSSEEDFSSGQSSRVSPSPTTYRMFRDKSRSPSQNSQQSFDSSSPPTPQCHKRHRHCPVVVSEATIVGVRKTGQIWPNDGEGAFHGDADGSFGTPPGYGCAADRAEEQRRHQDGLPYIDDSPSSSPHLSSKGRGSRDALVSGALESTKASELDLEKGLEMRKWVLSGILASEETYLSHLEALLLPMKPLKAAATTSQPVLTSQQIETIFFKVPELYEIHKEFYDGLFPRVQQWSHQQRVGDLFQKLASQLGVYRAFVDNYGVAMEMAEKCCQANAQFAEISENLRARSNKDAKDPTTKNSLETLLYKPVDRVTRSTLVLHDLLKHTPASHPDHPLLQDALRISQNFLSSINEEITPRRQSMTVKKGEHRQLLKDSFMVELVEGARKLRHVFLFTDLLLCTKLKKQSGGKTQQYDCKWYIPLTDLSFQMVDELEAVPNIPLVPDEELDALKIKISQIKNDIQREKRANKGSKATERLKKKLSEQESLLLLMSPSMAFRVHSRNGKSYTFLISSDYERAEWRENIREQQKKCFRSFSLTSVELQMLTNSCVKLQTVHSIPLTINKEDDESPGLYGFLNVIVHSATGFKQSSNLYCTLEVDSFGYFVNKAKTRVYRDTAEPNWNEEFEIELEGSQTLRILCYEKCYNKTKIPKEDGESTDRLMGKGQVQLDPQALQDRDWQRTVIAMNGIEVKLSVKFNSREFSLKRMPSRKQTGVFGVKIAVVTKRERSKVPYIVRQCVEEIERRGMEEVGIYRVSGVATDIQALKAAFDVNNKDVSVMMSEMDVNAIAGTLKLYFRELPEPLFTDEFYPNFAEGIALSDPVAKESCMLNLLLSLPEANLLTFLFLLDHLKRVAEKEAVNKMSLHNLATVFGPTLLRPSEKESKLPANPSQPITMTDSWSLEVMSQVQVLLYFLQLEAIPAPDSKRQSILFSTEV
Active and inactive are the calls of the source.
Measured Kd, listed per entry for reference.

INSERT INTO results (molecule, experimental_readout, reported_measurement) VALUES
  ('NC1(c2ccc(-c3nc4ccn5c(=O)[nH]nc5c4cc3-c3ccccc3)cc2)CCC1 [MK-2206]', 'Kd', '> 30 µM (inactive)'),
  ('CO[C@H]1C[C@@H]2CC[C@@H](C)[C@@](O)(O2)C(=O)C(=O)N2CCCC[C@H]2C(=O)O[C@H]([C@H](C)C[C@@H]2CC[C@@H](OC(=O)C(C)(CO)CO)[C@H](OC)C2)CC(=O)[C@H](C)/C=C(\C)[C@@H](O)[C@@H](OC)C(=O)[C@H](C)C[C@H](C)/C=C/C=C/C=C/1C [TEMSIROLIMUS]', 'Kd', '> 30 µM (inactive)');

Now for another entry.
**Query** Kd of CC(C)(C)c1nc(-c2cccc(NS(=O)(=O)c3c(F)cccc3F)c2F)c(-c2ccnc(N)n2)s1 [DABRAFENIB] on Breakpoint cluster region protein (Homo sapiens, UniProt P11274)?
**Result** > 30 µM (inactive)

----------
Calls of active or inactive are those of the source.
Kd values recorded for UniProt Q14004
Sequence (Q14004 whole entry): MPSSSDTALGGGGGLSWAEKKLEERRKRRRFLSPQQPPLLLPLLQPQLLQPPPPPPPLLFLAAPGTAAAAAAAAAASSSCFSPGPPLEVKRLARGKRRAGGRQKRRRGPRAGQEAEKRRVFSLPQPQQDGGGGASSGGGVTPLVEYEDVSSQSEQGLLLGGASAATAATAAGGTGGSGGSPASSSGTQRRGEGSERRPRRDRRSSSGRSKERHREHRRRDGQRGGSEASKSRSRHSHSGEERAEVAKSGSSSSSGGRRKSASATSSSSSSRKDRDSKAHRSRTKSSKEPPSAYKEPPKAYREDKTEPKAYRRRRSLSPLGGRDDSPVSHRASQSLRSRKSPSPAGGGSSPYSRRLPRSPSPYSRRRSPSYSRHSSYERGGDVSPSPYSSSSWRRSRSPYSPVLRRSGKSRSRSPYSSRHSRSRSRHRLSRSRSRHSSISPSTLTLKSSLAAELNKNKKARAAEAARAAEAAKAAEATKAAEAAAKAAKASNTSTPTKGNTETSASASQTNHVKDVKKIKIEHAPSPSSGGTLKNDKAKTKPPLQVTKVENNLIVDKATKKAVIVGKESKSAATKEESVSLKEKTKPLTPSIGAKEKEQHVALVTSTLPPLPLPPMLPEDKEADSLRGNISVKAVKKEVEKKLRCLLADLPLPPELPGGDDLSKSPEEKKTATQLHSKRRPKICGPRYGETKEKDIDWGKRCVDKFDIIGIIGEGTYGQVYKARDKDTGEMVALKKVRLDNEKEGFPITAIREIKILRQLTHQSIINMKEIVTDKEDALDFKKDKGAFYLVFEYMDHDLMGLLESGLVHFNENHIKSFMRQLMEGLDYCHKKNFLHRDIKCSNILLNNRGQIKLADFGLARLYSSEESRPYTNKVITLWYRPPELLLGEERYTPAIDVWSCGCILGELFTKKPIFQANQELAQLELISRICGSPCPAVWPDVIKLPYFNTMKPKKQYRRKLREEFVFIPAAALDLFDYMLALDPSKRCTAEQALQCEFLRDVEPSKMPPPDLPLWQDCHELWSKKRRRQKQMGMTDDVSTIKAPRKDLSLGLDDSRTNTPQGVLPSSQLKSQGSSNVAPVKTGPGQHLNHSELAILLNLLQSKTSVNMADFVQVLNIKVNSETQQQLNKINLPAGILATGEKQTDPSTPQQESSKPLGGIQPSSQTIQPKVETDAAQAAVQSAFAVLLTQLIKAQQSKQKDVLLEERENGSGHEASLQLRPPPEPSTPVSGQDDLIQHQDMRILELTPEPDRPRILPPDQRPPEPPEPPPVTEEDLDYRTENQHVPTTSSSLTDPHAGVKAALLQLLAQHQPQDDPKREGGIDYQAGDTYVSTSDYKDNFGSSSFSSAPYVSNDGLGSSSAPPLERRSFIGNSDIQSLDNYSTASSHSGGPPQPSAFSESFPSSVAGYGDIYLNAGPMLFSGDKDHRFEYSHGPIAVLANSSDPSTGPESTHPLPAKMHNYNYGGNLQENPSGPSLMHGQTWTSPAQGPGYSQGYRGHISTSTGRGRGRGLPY

Would you please look over these solved cases?
INSERT INTO measurements (compound, reported_measurement) VALUES
  ('CO[C@H]1C[C@@H]2CC[C@@H](C)[C@@](O)(O2)C(=O)C(=O)N2CCCC[C@H]2C(=O)O[C@H]([C@H](C)C[C@@H]2CC[C@@H](O)[C@H](OC)C2)CC(=O)[C@H](C)/C=C(\C)[C@@H](O)[C@@H](OC)C(=O)[C@H](C)C[C@H](C)/C=C/C=C/C=C/1C [SIROLIMUS]', '> 30 µM (inactive)'),
  ('O=c1[nH]ccc2cc(OC3CCNCC3)ccc12 [SAR-407899 FREE BASE]', '> 30 µM (inactive)'),
  ('N#CC1(c2ccc(NC(=O)c3cccnc3NCc3ccncc3)cc2)CCCC1 [RIVOCERANIB]', '> 30 µM (inactive)');

Now take the following compound into account.
**Query** Query the reported Kd for UniProt Q14004; item: Cn1cnc2c(F)c(Nc3ccc(Br)cc3F)c(C(=O)NOCCO)cc21 [BINIMETINIB]
**Result** > 30 µM (inactive)

----------
Read-out record for Serine/threonine-protein kinase 4 (Homo sapiens): Kd
Activity calls are given as the source filed them.

INSERT INTO assay_data (structure_smiles, reported_measurement) VALUES
  ('CCn1cc(-c2ccnc3[nH]c(-c4cccc(CN(C)C)c4)cc23)c(-c2ccc(NC(=O)N(C)C)cc2)n1', '> 30 µM (inactive)');

**Query** Which Kd is reported for this molecule? `Cc1cccc(-c2nn3c(c2-c2ccnc4ccc(C(N)=O)cc24)CCC3)n1`
**Result** > 30 µM (inactive)

----------
Target or system Bone morphogenetic protein receptor type-1A (Homo sapiens); recorded quantity Kd. Note: in the data inactive means no Kd found up to 30 µM.
Active and inactive are the calls of the source.

INSERT INTO assay_data (structure_smiles, reported_measurement) VALUES
  ('CO[C@H]1C[C@@H]2CC[C@@H](C)[C@@](O)(O2)C(=O)C(=O)N2CCCC[C@H]2C(=O)O[C@H]([C@H](C)C[C@@H]2CC[C@@H](OP(C)(C)=O)[C@H](OC)C2)CC(=O)[C@H](C)/C=C(\C)[C@@H](O)[C@@H](OC)C(=O)[C@H](C)C[C@H](C)/C=C/C=C/C=C/1C', '> 30 µM (inactive)'),
  ('COc1ccc(S(=O)(=O)N(C(C)=O)c2ccccc2/C=C/c2cc[n+]([O-])cc2)cc1', '> 30 µM (inactive)');

Could you now look at the following compound, please?
**Query** Value lookup for Kd; key = `COc1cc2ncnc(Oc3cccc(NC(=O)Nc4cc(C(C)(C)C(F)(F)F)on4)c3)c2cc1OC`
**Result** > 30 µM (inactive)

----------
assayed_system: Mitogen-activated protein kinase kinase kinase kinase 1 (Homo sapiens, UniProt Q92918); note: in the data inactive means no Kd found up to 30 µM
Sequence (Q92918 whole entry): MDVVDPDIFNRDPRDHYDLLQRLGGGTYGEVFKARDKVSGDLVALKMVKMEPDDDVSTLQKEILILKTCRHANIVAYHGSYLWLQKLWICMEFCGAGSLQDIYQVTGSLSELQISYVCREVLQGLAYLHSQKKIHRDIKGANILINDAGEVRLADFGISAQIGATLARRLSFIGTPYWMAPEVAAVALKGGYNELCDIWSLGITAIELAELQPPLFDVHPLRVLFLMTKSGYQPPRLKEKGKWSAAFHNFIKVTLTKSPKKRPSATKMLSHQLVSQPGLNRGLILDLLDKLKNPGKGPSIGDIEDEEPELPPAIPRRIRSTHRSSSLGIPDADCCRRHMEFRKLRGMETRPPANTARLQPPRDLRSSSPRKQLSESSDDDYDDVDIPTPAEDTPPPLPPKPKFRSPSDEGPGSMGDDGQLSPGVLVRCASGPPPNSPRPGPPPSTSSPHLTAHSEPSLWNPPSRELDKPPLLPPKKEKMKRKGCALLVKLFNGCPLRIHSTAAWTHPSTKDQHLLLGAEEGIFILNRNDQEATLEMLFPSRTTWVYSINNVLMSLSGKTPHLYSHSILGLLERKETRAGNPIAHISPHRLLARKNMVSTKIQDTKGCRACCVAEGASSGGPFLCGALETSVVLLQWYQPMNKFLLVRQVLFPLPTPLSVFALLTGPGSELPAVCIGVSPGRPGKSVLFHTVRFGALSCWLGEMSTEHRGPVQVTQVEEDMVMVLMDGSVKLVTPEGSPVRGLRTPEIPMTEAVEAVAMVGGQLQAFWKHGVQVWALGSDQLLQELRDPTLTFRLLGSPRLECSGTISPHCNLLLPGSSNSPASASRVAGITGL
Calls of active or inactive are those of the source.
experimental_readout: Kd

Reference set, count: 2
INSERT INTO assay_data (structure_smiles, assayed_system, reported_measurement) VALUES
  ('Cc1cccc(-c2nn3c(c2-c2ccnc4ccc(C(N)=O)cc24)CCC3)n1', 'Mitogen-activated protein kinase kinase kinase kinase 1 (Homo sapiens, UniProt Q92918)', '> 30 µM (inactive)'),
  ('CO[C@H]1C[C@@H]2CC[C@@H](C)[C@@](O)(O2)C(=O)C(=O)N2CCCC[C@H]2C(=O)O[C@H]([C@H](C)C[C@@H]2CC[C@@H](O)[C@H](OC)C2)CC(=O)[C@H](C)/C=C(\C)[C@@H](O)[C@@H](OC)C(=O)[C@H](C)C[C@H](C)/C=C/C=C/C=C/1C', 'Mitogen-activated protein kinase kinase kinase kinase 1 (Homo sapiens, UniProt Q92918)', '> 30 µM (inactive)');

Now consider the entry below.
**Query** Observed Kd on Mitogen-activated protein kinase kinase kinase kinase 1 (Homo sapiens, UniProt Q92918) for `O=C(Cc1ccc(-c2ccc(OCCN3CCOCC3)cc2)cn1)NCc1ccccc1` , please.
**Result** > 30 µM (inactive)

----------
assayed_system: Receptor-interacting serine/threonine-protein kinase 3 (Homo sapiens); note: in the data inactive means no Kd found up to 30 µM
Sequence (Q9Y572 whole entry): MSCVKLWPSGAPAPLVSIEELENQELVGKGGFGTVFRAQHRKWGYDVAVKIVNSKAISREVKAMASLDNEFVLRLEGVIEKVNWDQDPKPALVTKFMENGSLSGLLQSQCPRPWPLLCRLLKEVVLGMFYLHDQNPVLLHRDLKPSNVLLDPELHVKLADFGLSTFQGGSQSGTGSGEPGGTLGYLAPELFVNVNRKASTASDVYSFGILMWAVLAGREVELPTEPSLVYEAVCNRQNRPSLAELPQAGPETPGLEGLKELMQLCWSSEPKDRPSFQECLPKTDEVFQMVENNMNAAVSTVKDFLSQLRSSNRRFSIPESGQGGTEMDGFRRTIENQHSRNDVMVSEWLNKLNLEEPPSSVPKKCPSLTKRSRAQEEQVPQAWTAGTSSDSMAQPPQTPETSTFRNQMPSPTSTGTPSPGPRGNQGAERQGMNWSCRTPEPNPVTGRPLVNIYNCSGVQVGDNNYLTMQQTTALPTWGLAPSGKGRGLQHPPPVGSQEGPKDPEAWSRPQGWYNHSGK
Calls of active or inactive are those of the source.
Can you answer with just one of these options? T for active, F for inactive

Record excerpt, results attached:
INSERT INTO measurements (compound, assayed_system, assigned_category) VALUES
  ('O=c1[nH]ccc2cc(OC3CCNCC3)ccc12 [SAR-407899 FREE BASE]', 'Receptor-interacting serine/threonine-protein kinase 3 (Homo sapiens)', 'F'),
  ('CCn1cc(-c2ccnc3[nH]c(-c4cccc(CN(C)C)c4)cc23)c(-c2ccc(NC(=O)N(C)C)cc2)n1', 'Receptor-interacting serine/threonine-protein kinase 3 (Homo sapiens)', 'F'),
  ('COc1cc2c(Nc3ccc(Cl)c(Cl)c3F)ncnc2cc1OC[C@@H]1C[C@@H]2CN(C)C[C@@H]2C1', 'Receptor-interacting serine/threonine-protein kinase 3 (Homo sapiens)', 'T'),
  ('O=C(Nc1cc(C(F)(F)F)cc(C(F)(F)F)c1)c1cc(Cl)ccc1O', 'Receptor-interacting serine/threonine-protein kinase 3 (Homo sapiens)', 'F'),
  ('COc1ncc(-c2ccc3nccc(-c4ccnnc4)c3c2)cc1NS(=O)(=O)c1ccc(F)cc1F', 'Receptor-interacting serine/threonine-protein kinase 3 (Homo sapiens)', 'F'),
  ('C[C@H]1CNCCCN1S(=O)(=O)c1cccc2cncc(F)c12', 'Receptor-interacting serine/threonine-protein kinase 3 (Homo sapiens)', 'F');

**Query** Please state the recorded outcome for this compound: `N#CC[C@H](C1CCCC1)n1cc(-c2ncnc3[nH]ccc23)cn1`
**Result** F

**Query** Look up the recorded call for `CCn1c(C(=O)N(C2CC2)C2CC2)cc2c3c(ncn3C)c(Nc3cc(C)n(C)n3)nc21` in this test.
**Result** F

**Query** Record lookup: outcome of this test for `COc1cc(Nc2ncc3c(n2)-c2ccc(Cl)cc2C(c2c(F)cccc2OC)=NC3)ccc1C(=O)O` ?
**Result** F

**Query** Lab log entry: `Nc1ncnc2c1c(-c1cccc(OCc3ccccc3)c1)cn2[C@H]1C[C@@H](CN2CCC2)C1` — outcome as called in the assay?
**Result** T

**Query** Query: recorded result category for `CC(C)(C)c1nc(-c2cccc(NS(=O)(=O)c3c(F)cccc3F)c2F)c(-c2ccnc(N)n2)s1` in this test
**Result** T

**Query** I'd appreciate the recorded outcome for `COc1c(OCCCN2CCOCC2)ccc2c1N=C(NC(=O)c1cnc(N)nc1)N1CCN=C21` from this test.
**Result** F

**Query** What classification did `O=C(Cc1ccc(-c2ccc(OCCN3CCOCC3)cc2)cn1)NCc1ccccc1` end up with in this test?
**Result** F

**Query** Given `CO[C@H]1C[C@@H]2CC[C@@H](C)[C@@](O)(O2)C(=O)C(=O)N2CCCC[C@H]2C(=O)O[C@H]([C@H](C)C[C@@H]2CC[C@@H](OC(=O)C(C)(CO)CO)[C@H](OC)C2)CC(=O)[C@H](C)/C=C(\C)[C@@H](O)[C@@H](OC)C(=O)[C@H](C)C[C@H](C)/C=C/C=C/C=C/1C` , state the outcome it received in this test.
**Result** F

**Query** Given `Cc1csc(-c2nnc(Nc3ccc(Oc4ncccc4-c4ccnc(N)n4)cc3)c3ccccc23)c1` , state the outcome it received in this test.
**Result** F

**Query** Check the results log: what was the call for `Cc1cc(C(=O)NOCCO)c(Nc2ccc(I)cc2F)n(C)c1=O` ?
**Result** F

**Query** Look up the recorded call for `CNC(=O)c1nn(C)c2c1C(C)(C)Cc1cnc(Nc3ccc(N4CCN(C)CC4)cc3)nc1-2` in this test.
**Result** F

**Query** Look up the recorded call for `CCNC(=O)C#Cc1ccc2c(c1)NC(=O)/C2=C(\Nc1ccc(CN(C)C)cc1)c1ccccc1` in this test.
**Result** F

**Query** Each compound tested received a call. Report the one for `C=CC(=O)N1CCC[C@H](n2c(=O)n(-c3ccc(Oc4ccccc4)cc3)c3c(N)ncnc32)C1` .
**Result** F

**Query** Per the assay record, what outcome was assigned to `CN(C[C@@H]1COCCO1)S(=O)(=O)Nc1ccc2ccc3ncc(-c4cnn(C)c4)cc3c(=O)c2c1` ?
**Result** F

**Query** State the result this test recorded for `Cc1nc(NC(=O)N2CCC[C@H]2C(N)=O)sc1-c1ccnc(C(C)(C)C(F)(F)F)c1` .
**Result** F
